Reported ΔTm by item:
- Species on record: Homo sapiens
- protocolSummary: Binding affinity to human telomeric 5'-FAMd(G3[T2AG3]3)-TAMRA-3' assessed as melting temperature at 0.5 uM by FRET assay
# output: bare number, implied unit °C

- mol: "CC(C)/N=C(/NCCn1cc(-c2ccc3ccc4ccc(-c5cn(CCN/C(=N\\C(C)C)NC(C)C)nn5)nc4c3n2)nn1)NC(C)C"
  unitLabel: "°C"
  ΔTm: 4.2
- mol: "NCCn1cc(-c2ccc3ccc4ccc(-c5cn(CCN)nn5)nc4c3n2)nn1"
  unitLabel: "°C"
  ΔTm: 4.4
- mol: "CC(C)/N=C(/NCCCn1cc(-c2ccc3ccc4ccc(-c5cn(CCCN/C(=N\\C(C)C)NC(C)C)nn5)nc4c3n2)nn1)NC(C)C"
  unitLabel: "°C"
  ΔTm: 3.2
- mol: "N=C(N)NCCCn1cc(-c2ccc3ccc4ccc(-c5cn(CCCNC(=N)N)nn5)nc4c3n2)nn1"
  unitLabel: "°C"
  ΔTm: 12.2
- mol: "N=C(N)NCCCCn1cc(-c2ccc3ccc4ccc(-c5cn(CCCCNC(=N)N)nn5)nc4c3n2)nn1"
  unitLabel: "°C"
  ΔTm: 12.2

Continue with the next compound.
If you can, please state the reported ΔTm value of `C[n+]1ccc(-c2c3nc(c(-c4cc[n+](C)cc4)c4ccc([nH]4)c(-c4cc[n+](C)cc4)c4ccc([nH]4)c(-c4cc[n+](C)cc4)c4nc2C=C4)C=C3)cc1` .
19.7
